Biological target: PKN1 (human) (UniProt Q16512)
Sequence (Q16512 whole entry, looked up): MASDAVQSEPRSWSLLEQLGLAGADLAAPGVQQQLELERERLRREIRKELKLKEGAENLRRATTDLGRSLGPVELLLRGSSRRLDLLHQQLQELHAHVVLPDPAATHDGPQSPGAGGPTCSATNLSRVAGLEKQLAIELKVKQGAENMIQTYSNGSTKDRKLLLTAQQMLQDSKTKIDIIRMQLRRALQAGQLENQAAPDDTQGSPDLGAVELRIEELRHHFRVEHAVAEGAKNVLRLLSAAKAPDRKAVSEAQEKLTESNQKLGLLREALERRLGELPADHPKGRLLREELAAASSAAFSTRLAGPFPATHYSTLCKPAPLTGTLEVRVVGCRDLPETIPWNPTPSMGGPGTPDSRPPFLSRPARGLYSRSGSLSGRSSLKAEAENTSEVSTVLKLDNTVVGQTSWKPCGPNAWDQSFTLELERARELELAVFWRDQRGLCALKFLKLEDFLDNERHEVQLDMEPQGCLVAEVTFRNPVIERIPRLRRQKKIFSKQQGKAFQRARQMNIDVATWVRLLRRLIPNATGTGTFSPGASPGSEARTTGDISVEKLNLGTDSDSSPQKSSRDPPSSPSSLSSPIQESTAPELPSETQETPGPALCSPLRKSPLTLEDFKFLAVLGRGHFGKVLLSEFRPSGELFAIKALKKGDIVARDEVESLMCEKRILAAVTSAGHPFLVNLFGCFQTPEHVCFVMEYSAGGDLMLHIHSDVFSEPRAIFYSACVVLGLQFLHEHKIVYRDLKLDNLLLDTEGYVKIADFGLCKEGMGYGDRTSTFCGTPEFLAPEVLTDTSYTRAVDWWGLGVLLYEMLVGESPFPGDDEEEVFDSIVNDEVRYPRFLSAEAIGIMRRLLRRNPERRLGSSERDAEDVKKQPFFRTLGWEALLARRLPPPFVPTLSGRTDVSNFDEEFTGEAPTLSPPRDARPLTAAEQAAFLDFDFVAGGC
Test: radiometric filter-binding kinase assay, Kinase HotSpot
Conditions: compound 0.5 µM; ATP 10 µM
quantity-kind: residual activity

Previously resolved entries follow.
{"columns": ["compound", "target-entity", "residual activity"],
 "data": [
  ["O=C1Nc2ccc(Cl)cc2/C1=C/c1cc(Cl)c(O)c(Cl)c1", "PKN1 (human) (UniProt Q16512)", "93%"],
  ["COc1cc2ncnc(Nc3cccc(Cl)c3)c2cc1OC", "PKN1 (human) (UniProt Q16512)", "96.8%"]
]}

Summary for this compound, CCN(CC)CCNC(=O)c1c(C)[nH]c(/C=C2\C(=O)Nc3ccc(F)cc32)c1C : residual activity is 71.4%

Summary for this compound, c1ccc(-c2n[nH]c3c2oc2ccccc23)cc1 : residual activity is 94.1%

Summary for this compound, N#C/C(=C(/N)Sc1ccc(N)cc1)c1ccccc1C(F)(F)F : residual activity is 104%

Summary for this compound, Cc1ccc(Nc2nccc(N(C)c3ccc4c(C)n(C)nc4c3)n2)cc1S(N)(=O)=O : residual activity is 102%

Summary for this compound, O=C1NC(=O)C(c2cn(CCCn3ccnc3)c3ccccc23)=C1Nc1ccccc1 : residual activity is 22.7%

Summary for this compound, CCC(=O)Nc1ccc2ncnc(Nc3cccc(Br)c3)c2c1 : residual activity is 101%

Summary for this compound, N#CC(C#N)=C(N)/C(C#N)=C/c1ccc(O)cc1 : residual activity is 89%

Summary for this compound, O=C1NC(=O)/C(=C/c2ccc3c(c2)OC(F)(F)O3)S1 : residual activity is 98.5%

Summary for this compound, CCCC(=O)Oc1ccc2[nH]c(C(=O)c3cc4ccccc4[nH]3)cc2c1 : residual activity is 94.6%

Summary for this compound, CO[C@H]1CC2CC[C@@H](C)[C@@](O)(O2)C(=O)C(=O)N2CCCC[C@H]2C(=O)OC([C@H](C)C[C@@H]2CC[C@@H](O)[C@H](OC)C2)CC(=O)[C@H](C)/C=C(\C)[C@@H](O)[C@@H](OC)C(=O)[C@H](C)C[C@H](C)/C=C/C=C/C=C/1C (stereo partly specified) : residual activity is 96.2%

Summary for this compound, CC#CC(=O)Nc1cc2c(Nc3ccc(F)c(Cl)c3)ncnc2cn1 : residual activity is 101%

Summary for this compound, Nc1ncnc2[nH]nc(Nc3ccc(F)cc3)c12 : residual activity is 102%

Summary for this compound, O=S(=O)(c1cccc2cnccc12)N1CCCNCC1 : residual activity is 40.5%

Summary for this compound, O=c1cc(N2CCOCC2)oc2c1ccc1ccccc12 : residual activity is 106%

Summary for this compound, CNC(=O)c1cc(Oc2ccc(NC(=O)Nc3ccc(Cl)c(C(F)(F)F)c3)cc2)ccn1 : residual activity is 106%

Summary for this compound, O=C(Nc1cccc(Nc2nccc(Nc3cccc(C(F)(F)F)c3)n2)c1)C1CC1 : residual activity is 93.3%

Summary for this compound, CCOC(=O)c1c(C)[nH]c(/C=C2\C(=O)Nc3ccccc32)c1C : residual activity is 89.6%

Summary for this compound, Nc1cccc(-c2cc3c(Oc4cccc(O)c4)ncnc3[nH]2)c1 : residual activity is 105%

Summary for this compound, Nc1ncnc2c1c(-c1ccc(Oc3ccccc3)cc1)cn2C1CCCC1 : residual activity is 104%

Summary for this compound, CCN(CC)C(=O)c1ccc(Nc2nc(OCC3CCCCC3)c3nc[nH]c3n2)cc1 : residual activity is 78.9%

Summary for this compound, CC[n+]1c(/C=C/N(C)c2ccccc2)n(-c2ccccc2)c2ccc(-c3nc4ccccc4s3)cc21 : residual activity is 85.7%

Summary for this compound, Nc1ccc2ncnc(NCCc3ccc(Oc4ccccc4)cc3)c2c1 : residual activity is 105%

The reported measurements were obtained from the kinase profiling compilation of Christmann-Franck et al. (2016).
